# Study target: human TLR8 (Homo sapiens, UniProt Q9NR97)
# Sequence (Q9NR97 27-1041): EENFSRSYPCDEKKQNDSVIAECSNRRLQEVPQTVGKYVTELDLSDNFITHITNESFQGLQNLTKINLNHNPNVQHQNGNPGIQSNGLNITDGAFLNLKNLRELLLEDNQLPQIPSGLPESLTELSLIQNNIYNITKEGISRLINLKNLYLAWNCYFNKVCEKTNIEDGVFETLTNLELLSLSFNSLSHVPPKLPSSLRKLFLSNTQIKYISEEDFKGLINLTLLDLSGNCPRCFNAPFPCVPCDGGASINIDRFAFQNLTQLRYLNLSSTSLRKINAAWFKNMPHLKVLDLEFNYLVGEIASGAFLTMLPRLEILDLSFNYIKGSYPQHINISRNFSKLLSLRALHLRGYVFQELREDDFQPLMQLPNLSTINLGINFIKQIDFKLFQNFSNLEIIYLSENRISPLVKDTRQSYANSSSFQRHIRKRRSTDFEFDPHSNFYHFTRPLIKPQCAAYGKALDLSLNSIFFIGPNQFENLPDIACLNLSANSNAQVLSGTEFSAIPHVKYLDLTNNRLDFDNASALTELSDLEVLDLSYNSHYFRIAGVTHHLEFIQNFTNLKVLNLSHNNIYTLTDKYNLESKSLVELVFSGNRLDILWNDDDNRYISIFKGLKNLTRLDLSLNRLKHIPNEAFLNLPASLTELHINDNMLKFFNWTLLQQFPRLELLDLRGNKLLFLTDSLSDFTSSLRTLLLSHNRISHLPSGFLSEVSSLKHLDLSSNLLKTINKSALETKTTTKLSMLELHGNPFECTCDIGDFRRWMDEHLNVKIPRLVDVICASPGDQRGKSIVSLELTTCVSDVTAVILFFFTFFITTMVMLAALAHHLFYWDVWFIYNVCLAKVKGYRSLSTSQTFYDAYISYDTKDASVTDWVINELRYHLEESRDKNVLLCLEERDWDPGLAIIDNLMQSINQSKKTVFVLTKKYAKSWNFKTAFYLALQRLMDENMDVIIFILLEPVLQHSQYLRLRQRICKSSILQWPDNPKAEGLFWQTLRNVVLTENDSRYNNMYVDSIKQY
# Assay notes: TLR8 inhibition reporter assay (HEK-Blue cells, SEAP reporter)
# Condition parameters: HEK-Blue cells overexpressing human TLR8; stimulated with R848 15.9 μM; SEAP after 22 hour incubation
Endpoint: IC50 (nM)

[P] COc1ccc(-c2cc3ncc(-c4ccc(N5CCNCC5)cc4)cc3n2C)cc1OC [Example 13]
[Q] Cn1c(-c2ccc(S(C)(=O)=O)cc2)cc2ncc(-c3ccc(N4CCNCC4)cc3)cc21 [Example 20]
[R] CC(C)N1CCN(c2ccc(-c3cnc4cc(-c5ccc(S(C)(=O)=O)cc5)n(C)c4c3)cc2)C[C@H]1C [Example 32]
QUERY: Put the above entries in order of falling IC50. Sort and list the labels as requested.
RESULT: R, P, Q

[A] CC(C)N1CCN(c2ccc(-c3cnc4cc(-c5ccc(S(C)(=O)=O)cc5F)n(C)c4c3)cc2)CC1 [Example 41]
[B] Cn1c(-c2ccc(S(C)(=O)=O)cc2)cc2ncc(-c3ccc(N4CCN(CCC(C)(C)O)CC4)cc3)cc21 [Example 16]
QUERY: Which record shows the lower IC50: the first, A , or the second, B ? Reply with the label of the item you choose.
RESULT: A
(A: 1600 nM, B: 4700 nM)
